- assay-notes: yeast display, Sf9 membrane polyspecificity reagent, FACS + sequencing; frameworks hold sequencing errors
quantity-name: polyreactivity (PSR sort gate)

QVQLVESGGGLLQAGGSLRLSCAASGHIFRGYTMGWYRPAPGKERELVATITWNGVSTFYADSVKGRFTISRDTAKNTVYLQMNSLKPEDTSVYYCAAYYASHDYSGFWSDTYEYWGQGTQVTVSS: low polyreactivity
QVQLVESGGGLVQAGGSLRLSCAASGAIFGAITMGWYREAPGKERELVAAISKRGGSTYYADSVKGRFTSSRDNAKNTVYLQMNSLKPEDTAVYYCNATPRYLRQYVDPNWGYDYWGQGTQVTVSS: low polyreactivity
QVHLVESGGGLVQAGGSLRLSCASSGTTFRYYAMGCYRQAPGKERELVAAITYRGGRTYYADSVKGRFTISRDNPKNTVYLQMNSLKPEDTAVYYCAGKSGGDSMDSWGQGTQVTVSS: low polyreactivity
QVQLVESGVGLVQAGGSLRLSCAASGRIFRRYTMGWYRQPPGKERELVAAISASGGNTYYADSVKGRFTISRDNAKNTVYLQMNSLKPEDTAVYYCARRWRPWTQDGDDYWGQGTQVTVSS: high polyreactivity
QVQLVESGGGLVQAGGSLRLSCAASGIIFYHYAMGWYRPAPGKEREFVAAITWDGGNTSYADSVKGRFTISRDYAKNTFYLQMNSLIPEDTAVYYCNTDRGPVKVSPLYESWGQGTQVTVSS: low polyreactivity

Would you be so kind as to report polyreactivity (PSR sort gate) for each listed record?
1. QVQLVESGGRLVQAGGSLRLSCAASGFIFRKYAMGWYRQAHGKVRELVAGIDWSGCRTYYADSVKGRFTISRDNAKNTVYLQMNSLKPEDTAVYYCNSVFRARPDYDYWGVGTQVTVSS
2. QVQLVESGGALVQAGGSLRLSCAASGSIFDQYTMRWYRQAPGKDRELVAAIRFSGGSTSYADSVKGRFTISRDNAKNTVYLQMNSLKPDDTAVYYCNADSQPWRFGYWGQGTQVTVSS
3. QVQLVESVGGLVQAGGSLRLSCAASGRTFGRKALVWYTQAPGKERELVAAISTSGSRTYYADSVKGRFTISRDNAKNTVYLQLNSLTPEDTAVYYCYAYGVSRGSYGTRGYWGQGTQVTVSS
4. QVQLEESGGGLVQAGGSLRLTCAASGRTFSSYTMGWSRQAPGKERELVASITNNGGSTYYADSVKGRFTISRDNAKNTVYLQMNSLKPEDTAVYYCNKDPWYVFHPRGLFLFDYWGQGTQVTVSS
5. QVQLVESGGGLVQAGASLRLSCAASGSIFFPYAMGWYRQAPGKERELVASITRAGSTNYADSVKGRFTISRDNAKNTVYLQMTSQKPVDTAVYYCAARNYRQFEYGYWGQGTLVTVSS

Out:
1. high polyreactivity
2. low polyreactivity
3. high polyreactivity
4. low polyreactivity
5. low polyreactivity

In: May I ask what polyreactivity (PSR sort gate) has been recorded for QVQLVESGGGLVQAGGSLRLSCAASGTFKYYAMGWYIQAPGEERELVAAISRGGRTNYADSVKGRFTISRDNAKNTVYLQMTSLKPEDTAVYYCAARKADTVFKFEYWGQGTQVTVSS ?
Out: high polyreactivity
